experiment: In vivo zebrafish kinetics of BPZ (water exposure, organ concentrations by LC-MS/MS); set-up: species or system zebrafish (Danio rerio); conditions: female, zebrafish, ovary, other: exposure via tank water, 10 μg/L (nominal water concentration), female zebrafish, 486 h (depuration phase); read-out: Mean concentration, ovary
quantityMeasured: concentration at 486 h (ng/g)
// return numeric value only (unit: ng/g, not printed)

Per the record, Oc1ccc(C2(c3ccc(O)cc3)CCCCC2)cc1 has concentration at 486 h of 108

###

assay: In vivo zebrafish kinetics of BPZ (water exposure, organ concentrations by LC-MS/MS); design: species or system zebrafish (Danio rerio); details: female, zebrafish, carcass, other: exposure via tank water, 10 μg/L (nominal water concentration), female zebrafish, 504 h (depuration phase); read-out: Mean concentration, carcass
quantityMeasured: concentration at 504 h (ng/g)
// units = ng/g; emit number, no label

The compound identified as Oc1ccc(C2(c3ccc(O)cc3)CCCCC2)cc1 registered its concentration at 504 h at 8.3
